- System under test: HLA-A*02:01
- Measurement protocol: IEDB peptide-MHC binding, purified MHC/competitive/radioactivity; bounds were set here for any values at or beyond the usual limits of such assays
- Conditions used: source organism: Vaccinia virus WR
Assay endpoint: IC50 (nM)

Ordered residues	Assay endpoint	Experimental result
AVTKTDGIPI	IC50	1460
GLIVILFIM	IC50	1660
IILVIIVVI	IC50	418
HVLLPFYETL	IC50	17
HLPTMYDGL	IC50	1090
NVDIIDLLL	IC50	858
KLYIALCKV	IC50	6.7
IVIGVIILA	IC50	664
PVLMFLLFYV	IC50	69
ALKNSQAEL	IC50	1740
YVSTGESSIL	IC50	1360
EAAITDAAV	IC50	2320
YILCNMALL	IC50	0.38
ITLSLSKQDI	IC50	211
IIILAVLFI	IC50	1660
KIMEIVSHL	IC50	76
TMSAFLIVRL	IC50	448
LMTLDDLAI	IC50	74
MLNGIMYRL	IC50	0.35
LLVQYGAKI	IC50	1770
QLVWENFLA	IC50	22
STYPGNTFV	IC50	64
ILTLDIFYL	IC50	1.3
NMNYSDDYMM	IC50	2640
LMGTITLNA	IC50	173
KLSCAVHLI	IC50	3.2
YILRGLLEA	IC50	2.5
LLHVFQEYRL	IC50	27
YLLSGSDLFI	IC50	0.25
DVERLQMAGV	IC50	683
LLSLLVIWI	IC50	148
FIEHLGEGI	IC50	4820
GAFMYTKHSM	IC50	2000
FLPQIGGEAI	IC50	158
STAVNEEWL	IC50	4690
QIGGEAIFLI	IC50	383
LTKDRKMLEL	IC50	3430
ELKHGLLDSI	IC50	738
LLPLTSLVIT	IC50	1170
AIIAIVFVFI	IC50	940
SMITMSAFL	IC50	20
KTIIDPDFV	IC50	346
ATLNTLITLI	IC50	543
IVSKCIVQSV	IC50	612
LISFFGLFDI	IC50	175
NVFETRIVM	IC50	2640
KLIGITAIM	IC50	20
AAVTLNRIKI	IC50	2320
LLNVQTLISL	IC50	73
VVIVENDNVI	IC50	2830
YLFNAIETM	IC50	1.5
SMISRHCCI	IC50	986
MMWDLKKKGL	IC50	103
FLTGTFVTA	IC50	15
YMMGIEYGL	IC50	0.12
WVMDTLNGIM	IC50	175
FISPASISSV	IC50	1.4
SMYVIPDEL	IC50	91
SIFVSTMPV	IC50	40
GLLDRLYDL	IC50	0.13
TMSIYIAVA	IC50	136
YLVNAIIDSA	IC50	134
ILLTLRMTQL	IC50	366
IIDFLEGAL	IC50	919
ILWFFNAMVL	IC50	11
CLLTDTIESA	IC50	188
QTANVVFRYM	IC50	729
VIIMAINVFT	IC50	641
FLAVLSPTI	IC50	0.66
GLNDYLHSV	IC50	1.3
RTVIHLEWLL	IC50	134
IVILFIMFM	IC50	576
NTCKPTILAT	IC50	4410
KLVDICDRIV	IC50	32
LQISRVNDL	IC50	1700
LVDAIDNIV	IC50	37
FVKENERVNV	IC50	270
LALKNSQAEL	IC50	3760
ETIEILRNYL	IC50	944
TLFYCDERDA	IC50	238
HLEWLLGFI	IC50	173
SLSLHPLYV	IC50	9.8

Data provenance is the Immune Epitope Database (IEDB).
